SYSTEM NAME: metalloelastase (MMP-12) (Homo sapiens, UniProt P39900)
Sequence (P39900 106-470): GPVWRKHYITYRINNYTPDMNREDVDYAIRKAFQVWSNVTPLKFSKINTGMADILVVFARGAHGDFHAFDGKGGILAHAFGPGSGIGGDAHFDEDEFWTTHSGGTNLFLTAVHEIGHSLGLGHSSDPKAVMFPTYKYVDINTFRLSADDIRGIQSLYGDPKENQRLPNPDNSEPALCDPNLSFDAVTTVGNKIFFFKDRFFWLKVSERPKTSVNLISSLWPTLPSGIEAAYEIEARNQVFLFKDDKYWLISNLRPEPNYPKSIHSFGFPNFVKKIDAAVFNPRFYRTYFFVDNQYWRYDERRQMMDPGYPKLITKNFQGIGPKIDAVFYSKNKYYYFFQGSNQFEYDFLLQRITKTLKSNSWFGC
PROTOCOL DESCRIPTION: MMP-12 enzyme inhibition assay (coumarin-labelled peptide substrate McaPLGLDpaAR)
Assay type: biochemical
STUDY CONDITIONS: Table 2, compounds of Formula (VI); read-out: MMP-12 IC50
MEASURED METRIC: pIC50
Numbers only, as −log10 of the molar value.

For orientation, consider the following solved cases.
INSERT INTO results (smiles_structure, system_name, measured_metric, measured) VALUES
  ('CCOc1ccc(CCC[C@@H](C(=O)N2CCN(CCN3CCOCC3)CC2)[C@H](O)C(=O)NO)cc1', 'metalloelastase (MMP-12) (Homo sapiens, UniProt P39900)', 'pIC50', 7.64),
  ('CCOc1ccc(CCC[C@@H](C(=O)N2CCC(Nc3ccc(O)cc3)CC2)[C@H](O)C(=O)NO)cc1', 'metalloelastase (MMP-12) (Homo sapiens, UniProt P39900)', 'pIC50', 7.47);

Next up:
Entry CCOc1ccc(CCC[C@@H](C(=O)N2CCC(Oc3ccccn3)CC2)[C@H](O)C(=O)NO)cc1 — recorded pIC50 = 7.77

###

SYSTEM NAME: gelatinase A (MMP-2) (Homo sapiens)
Sequence (P08253 110-660): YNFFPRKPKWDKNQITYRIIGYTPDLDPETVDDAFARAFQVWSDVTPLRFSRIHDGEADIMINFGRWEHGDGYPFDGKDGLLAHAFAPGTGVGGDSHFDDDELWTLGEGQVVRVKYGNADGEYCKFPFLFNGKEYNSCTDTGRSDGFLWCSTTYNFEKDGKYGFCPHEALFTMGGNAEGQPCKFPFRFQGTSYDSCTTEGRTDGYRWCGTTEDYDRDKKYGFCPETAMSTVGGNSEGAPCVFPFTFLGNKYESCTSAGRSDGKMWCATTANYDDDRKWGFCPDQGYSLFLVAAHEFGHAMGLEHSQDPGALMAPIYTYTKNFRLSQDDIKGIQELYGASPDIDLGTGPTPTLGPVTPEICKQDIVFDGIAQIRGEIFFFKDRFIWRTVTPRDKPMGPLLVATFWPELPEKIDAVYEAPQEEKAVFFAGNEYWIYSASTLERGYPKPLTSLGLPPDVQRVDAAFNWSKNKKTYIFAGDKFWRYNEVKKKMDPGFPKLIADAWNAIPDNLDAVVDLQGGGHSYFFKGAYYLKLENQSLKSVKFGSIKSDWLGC
PROTOCOL DESCRIPTION: MMP-2 enzyme inhibition assay (coumarin-labelled peptide substrate McaPLGLDpaAR)
Type: biochemical
MEASURED METRIC: pIC50
One number for each entry, as −log10 of the molar value.

Entry CCOc1ccc(CCC[C@@H](C(=O)N2CCC(Nc3ccccc3)CC2)[C@H](O)C(=O)NO)cc1 — recorded pIC50 = 7.09

###

SYSTEM NAME: 92 kDa gelatinase (MMP-9) (Homo sapiens, UniProt P14780)
Sequence (P14780 107-707 limits assumed): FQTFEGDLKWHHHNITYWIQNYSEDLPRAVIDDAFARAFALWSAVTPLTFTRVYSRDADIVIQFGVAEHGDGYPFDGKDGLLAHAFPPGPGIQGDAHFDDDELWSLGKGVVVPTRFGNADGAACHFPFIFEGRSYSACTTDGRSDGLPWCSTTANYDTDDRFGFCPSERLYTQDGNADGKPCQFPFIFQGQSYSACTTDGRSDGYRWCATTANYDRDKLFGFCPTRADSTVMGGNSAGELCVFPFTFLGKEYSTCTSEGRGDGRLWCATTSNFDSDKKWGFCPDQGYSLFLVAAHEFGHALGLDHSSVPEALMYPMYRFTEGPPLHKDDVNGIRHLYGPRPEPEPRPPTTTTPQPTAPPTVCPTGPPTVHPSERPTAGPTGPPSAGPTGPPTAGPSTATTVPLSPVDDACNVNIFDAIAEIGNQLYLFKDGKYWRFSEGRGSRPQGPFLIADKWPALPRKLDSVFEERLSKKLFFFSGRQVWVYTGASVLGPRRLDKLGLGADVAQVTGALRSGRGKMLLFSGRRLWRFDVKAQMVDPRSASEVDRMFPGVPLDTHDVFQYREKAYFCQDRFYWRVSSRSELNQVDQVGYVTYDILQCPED
PROTOCOL DESCRIPTION: MMP-9 enzyme inhibition assay (coumarin-labeled peptide substrate McaPLGLDpaAR)
Format: biochemical
MEASURED METRIC: IC50 (nM)
One number for each entry, in nM.

Readout IC50 for CCOc1ccc(CCC[C@@H](C(=O)N2CCC(Nc3ccccc3)CC2)[C@H](O)C(=O)NO)cc1 , test system 92 kDa gelatinase (MMP-9) (Homo sapiens, UniProt P14780), was 37
